- Tested on: L1210
- protocol.text: Antitumor activity against mouse L1210 cells allografted in mouse assessed as increase of host lifespan of 110 days
- Format: functional, cell-based
The source made the active and inactive calls. No cut-off for these calls is given here.
value.kind: Activity

Here are 5 compounds together with their reported answers.
chemical.smiles	experimental.system	Activity
CN(C)/N=N/c1ccc(SC#N)cc1C(N)=O	L1210	inactive
CN(C)/N=N/c1ccc([N+](=O)[O-])cc1C(=O)O	L1210	inactive
CN(C)/N=N/c1ccc(Cl)cc1C(=O)O	L1210	inactive
CN(C)/N=N/c1ccccc1I	L1210	inactive
CN(C)/N=N/c1ccccc1C#N	L1210	inactive

Give me Activity for each of these compounds, listed below.
1. CSc1ccccc1/N=N/N(C)C
2. CN(C)/N=N/c1ccccc1C(=O)NCC(F)(F)F
3. CN(C)/N=N/c1ccccc1C(F)(F)F

Response given:
inactive
inactive
inactive

Where do these numbers come from? They come from ChEMBL document CHEMBL3244339.
